Data origin: paper PMC9482650

EXPERIMENTAL SYSTEM: GRID2IP_1, A4D2P6
Sequence (A4D2P6 1-87): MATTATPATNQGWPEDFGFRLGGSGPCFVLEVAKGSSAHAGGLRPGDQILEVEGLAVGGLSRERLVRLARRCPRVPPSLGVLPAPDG
ASSAY: holdup assay
Parameters: key: below the threshold = too weak to quantify, mostly under pKd 3.1 to 4
RUN PARAMETERS: plain residues with an end cap or a label only (N-terminal biotin on a linker: ado-ado)

[
  {
    "BINDER": "PPYRHRNTVV [ERBB4, Q15303]",
    "pKd": 3.89
  },
  {
    "BINDER": "DDEDRLVIEI [ZNF831, Q5JPB2]",
    "pKd": "below the threshold"
  },
  {
    "BINDER": "RRRESYSTTV [EVI5, O60447]",
    "pKd": "below the threshold"
  },
  {
    "BINDER": "TKGPRGPTRV [SAPCD1, Q5SSQ6]",
    "pKd": "below the threshold"
  }
]
